- MEASUREMENT_TARGET: human recombinant 5-HT2A receptor (Homo sapiens (Human))
- Sequence (P28223 whole entry): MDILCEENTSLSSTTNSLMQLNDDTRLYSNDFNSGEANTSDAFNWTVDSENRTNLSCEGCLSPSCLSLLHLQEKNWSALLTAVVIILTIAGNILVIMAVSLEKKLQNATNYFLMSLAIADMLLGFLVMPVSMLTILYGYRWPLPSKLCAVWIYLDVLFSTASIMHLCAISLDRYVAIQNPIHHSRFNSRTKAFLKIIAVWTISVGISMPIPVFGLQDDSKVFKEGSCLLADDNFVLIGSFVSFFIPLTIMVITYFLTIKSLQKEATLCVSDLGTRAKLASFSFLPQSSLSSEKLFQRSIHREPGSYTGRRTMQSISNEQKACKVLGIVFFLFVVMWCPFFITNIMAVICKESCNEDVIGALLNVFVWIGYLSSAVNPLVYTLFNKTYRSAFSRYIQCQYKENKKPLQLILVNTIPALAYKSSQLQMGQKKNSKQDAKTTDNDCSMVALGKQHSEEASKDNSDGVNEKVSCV
- PROTOCOL_SUMMARY: 5-HT2A receptor antagonism activity test (FLIPR Calcium 5 Assay Kit)
- SETUP_CONDITIONS: read-out: 5-HT2A receptor antagonism (IC50, mol/L); CHO-K1 cells expressing human recombinant 5-HT2A receptor; α-methyl-5-hydroxytryptamine 300 nM; 0.1 nM-10000 nM
Structures can show the parent of a compound that is named as a salt.
Parameter IC50: see the listing below.
PARAMETER: IC50 (nM)

INSERT INTO measurements (compound, value_units, recorded_measurement) VALUES
  ('Cc1nc2n(c(=O)c1CCN1CCN(c3cc(F)cc4sccc34)CC1)CCCC2', 'nM', 13.6),
  ('Cl.O=C1CCc2ccc(CCN3CCN(c4cccc5sc(F)cc45)CC3)cc2N1', 'nM', 257),
  ('Cc1nc2c(OCc3ccccc3)cccn2c(=O)c1CCN1CCN(c2cccc3sccc23)CC1 [Compound of example 17, hydrochloride]', 'nM', 350),
  ('CC(=O)Nc1nc2cccc(CCN3CCN(c4cccc5sccc45)CC3)c2s1', 'nM', 34.3),
  ('Cl.Cn1c(=O)n(C)c2cc(CCN3CCN(c4cccc5sccc45)CC3)ccc21 [Compound of example 87, hydrochloride]', 'nM', 88),
  ('Cc1nc2ccc(CCCCCN3CCN(c4cccc5sccc45)CC3)cc2c(=O)[nH]1', 'nM', 781),
  ('c1ccc2[nH]c(CN3CCN(c4cccc5sccc45)CC3)nc2c1', 'nM', 2170);

Entry source: patent US10174011B2
